- System: Semliki Forest virus
- experimentSummary: Antiviral activity against Semliki forest virus Vietnam infected in African green monkey Vero cells assessed as inhibition of virus-induced cell death after 6 to 7 days by MTS assay
- Type: functional, organism-based
// reported EC50 for each item listed
readoutType: EC50

INSERT INTO assay_data (recordsmiles, testresult) VALUES
  ('C=C1[C@H](OC(C)=O)[C@H]2[C@@H](OC(C)=O)[C@](C)(O)C[C@]2(OC(C)=O)C(=O)[C@H](C)/C=C/C(C)(C)C(=O)[C@H](OC(=O)/C(C)=C/C)[C@H]1OC(C)=O', '> 116 µM'),
  ('C=C1[C@H](OC(C)=O)[C@H]2[C@@H](OC(C)=O)[C@](C)(OC(C)=O)C[C@]2(OC(C)=O)C(=O)[C@H](C)/C=C/C(C)(C)C(=O)[C@H](OC(C)=O)[C@H]1OC(C)=O', '> 115 µM'),
  ('C=C1[C@H](OC(C)=O)[C@H]2[C@@H](OC(C)=O)[C@](C)(O)C[C@]2(OC(C)=O)C(=O)[C@H](C)/C=C/C(C)(C)C(=O)[C@H](OC(=O)C(C)C)[C@H]1OC(C)=O', '> 157 µM');

meta.source: ChEMBL document CHEMBL3414423
